Parameter pest or weed control at 250 g/ha: see the listing below.
- Tested on: Echinochloa crus-galli (ECHCG)
- TEST SUMMARY: Example B post-emergence herbicidal test, ECHCG
- Type: in vivo
- COND: Echinochloa crus-galli, 312 h, rate 250 g/ha, evaluated after 13 days, scale 0-100, read-out: Post-emergence activity ECHCG (100=total damage to plant; 0=no damage to plant)
- Procedure: Seeds of a variety of test species were sown in standard soil in pots. […] After 13 days for pre and post-emergence, the test was evaluated (100=total damage to plant; 0=no damage to plant). […]
Your answer is read as %, so omit the unit and give the number.

> print(dat)
                                   molecule                parameter.measured  measurement.units  quantitative.readout
1  CCCCCCC(=O)OC1=C(c2c(C)cc(C)cc2C)C(=O)C(CC2CCOC2)C1 (centres unmarked) [Compound P16]  pest or weed control at 250 g/ha                  %                   100

Ask | What value of pest or weed control at 250 g/ha has been recorded for this entry: COc1ccc(CC2C(=O)C(c3c(C)cc(C)cc3C)C(=O)C2CC2CCOC2)cc1 (centres unmarked) [Compound T149]
Reply | 20

Ask | What value of pest or weed control at 250 g/ha has been recorded for this entry: Cc1cc(C)c(C2=C(OC(=O)c3ccccc3)CC(CC3CCOC3)C2=O)c(C)c1 (centres unmarked) [Compound P17]
Reply | 100

Ask | What value of pest or weed control at 250 g/ha has been recorded for this entry: Cc1cc(C)c(C2C(=O)C/C(=C\C3CCN(C(=O)c4ccccc4)C3)C2=O)c(C)c1 (centres unmarked) [Compound T34]
Reply | 100

Ask | What value of pest or weed control at 250 g/ha has been recorded for this entry: Cc1cc(-c2ccccc2)cc(C)c1C1C(=O)C/C(=C\C2CCOCC2)C1=O (centres unmarked) [Compound T66]
Reply | 100

Ask | What value of pest or weed control at 250 g/ha has been recorded for this entry: Cc1cc(-c2ccccc2F)cc(C)c1C1C(=O)CC(CC2CCOC2)C1=O (centres unmarked) [Compound T140]
Reply | 90

Ask | What value of pest or weed control at 250 g/ha has been recorded for this entry: Cc1cc(C)c(C2C(=O)CC(CC3CCOC3C)C2=O)c(C)c1 (centres unmarked) [Compound T156]
Reply | 70

Ask | What value of pest or weed control at 250 g/ha has been recorded for this entry: Cc1cc(C)c(C2C(=O)CC(CC3CCCO3)C2=O)c(C)c1 (centres unmarked) [Compound T18]
Reply | 90
